# PROCEDURE_TEXT: basal S. cerevisiae growth modulation, no modifier, primary screen, OD600, strain BY4716, 24 h, basal condition (AID 1173)
# SETTINGS: OD600, 24 h, higher = more signal, called active from +8 up or from −8 down
Decide using z-score: a value greater than or equal to -0.7 is 1.0, a smaller one is 0.0.

Solved cases below.
[[record]]
compound = "COC(=O)[C@H](CCSC)NC(=O)CC=C[C@@H](C)CO"
classification = 1.0

[[record]]
compound = "CCCCOC(OCCCC)C(O)CSc1ccc2ccccc2c1 (stereo unspecified)"
classification = 0.0

[[record]]
compound = "CO[C@@H]1[C@H](O)CO[C@H]1C=Cc1ccccc1"
classification = 0.0

[[record]]
compound = "O=C1C=C[C@@H](O)[C@@H]2[C@@H]3C(=O)N(Cc4ccccc4)C(=O)[C@@H]3CC[C@@H]12"
classification = 1.0

[[record]]
compound = "CC(C)(C)N1C(=O)[C@H]2[C@H]3[C@H](O)[C@H](O)CC(=NOC[C@@H](O)COCc4ccco4)[C@H]3CC[C@H]2C1=O"
classification = 1.0


Can CCOC(=O)[C@H](CC(C)C)NC(=O)CCC1CC(OC(=O)NCCc2ccc(F)cc2)CC2(CCCC(COC(=O)NCc3cccc4ccccc34)O2)O1 (stereo partly specified) be said to have z-score at or above -0.7?
0.0

Can COc1ccc(COC(=O)NN=C2C[C@@H](O)[C@@H](O)[C@@H]3[C@@H]4C(=O)N(C[C@@H]5CCCO5)C(=O)[C@@H]4CC[C@H]23)cc1 be said to have z-score at or above -0.7?
1.0

Can CC1(C)O[C@H]2OC([C@H](O)CON3C(=O)c4ccccc4C3=O)[C@H](O)[C@H]2O1 (stereo partly specified) be said to have z-score at or above -0.7?
1.0

Can CCOC(=O)[C@H](Cc1ccccc1)NC(=O)CCC1CC(OC(=O)NCc2cccc3ccccc23)CC2(CCCC(COC(=O)NCCOc3ccccc3)O2)O1 (stereo partly specified) be said to have z-score at or above -0.7?
0.0

Can CCOC(=O)CCN1C(=O)[C@H]2[C@H]3[C@H](O)[C@H](O)CC(=NNC(=O)OCC)[C@H]3CC[C@H]2C1=O be said to have z-score at or above -0.7?
0.0

Can CCCNC(=O)OC[C@H]1O[C@H](CCON=C2C[C@@H](O)[C@@H](O)[C@@H]3[C@@H]4C(=O)N(CC)C(=O)[C@@H]4CC[C@@H]23)C=C[C@@H]1Oc1ccc(OC)cc1 be said to have z-score at or above -0.7?
1.0

Can CC(=O)OC[C@H]1O[C@H](C#CCCc2ccccc2)C=C[C@@H]1OC(C)=O be said to have z-score at or above -0.7?
0.0
